Sourced from PubChem BioAssay AID504374

- Experimental System: Runt-related transcription factor 1 (Homo sapiens) + Core-binding factor subunit beta (Homo sapiens) (UniProt Q01196+Q13951)
- Sequence (Q01196 whole entry, looked up): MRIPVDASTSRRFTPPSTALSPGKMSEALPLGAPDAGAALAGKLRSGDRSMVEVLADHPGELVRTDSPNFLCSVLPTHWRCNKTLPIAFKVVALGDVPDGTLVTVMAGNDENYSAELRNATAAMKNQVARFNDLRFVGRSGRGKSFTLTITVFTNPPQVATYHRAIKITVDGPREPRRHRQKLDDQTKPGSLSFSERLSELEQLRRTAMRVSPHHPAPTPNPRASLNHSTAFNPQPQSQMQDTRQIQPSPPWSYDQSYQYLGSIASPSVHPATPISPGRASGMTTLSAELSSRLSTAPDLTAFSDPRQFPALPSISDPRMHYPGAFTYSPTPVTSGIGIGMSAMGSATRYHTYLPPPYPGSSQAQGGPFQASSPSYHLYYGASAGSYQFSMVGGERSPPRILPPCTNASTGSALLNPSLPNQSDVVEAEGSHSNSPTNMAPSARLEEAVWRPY
- Sequence (Q13951 whole entry, looked up): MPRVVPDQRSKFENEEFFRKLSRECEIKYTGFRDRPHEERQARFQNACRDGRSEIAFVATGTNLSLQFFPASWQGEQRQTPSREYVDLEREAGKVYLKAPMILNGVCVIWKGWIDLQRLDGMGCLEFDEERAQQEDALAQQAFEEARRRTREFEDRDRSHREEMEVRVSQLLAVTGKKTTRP
- Test Details: qHTS Assay for Compounds Blocking the Interaction Between CBF-beta and RUNX1 for the Treatment of Acute Myeloid Leukemia: Hit Validation; also: nearly all actives have a fitted effect of over 60% in size
- Conditions Used: AlphaScreen CBFb-His/RUNX1-biotin binding; series mostly up to 59.8 µM
About 100 (6.7%) of roughly 1,500 compounds were called active. Roughly 7% stayed inconclusive and do not appear here. Calls follow the shape of the dose curve; as a rule, active = well fitted inhibition curve with a large enough effect; inconclusive = small, poorly fitted or top-dose-only effect, or effect the other way; inactive = flat fitted curve, though single readings scatter. This is one part of a sample in which actives are shown more often than they occur.
Assign a class; possible classes are active, inactive

See these solved cases before continuing.
                                   compound  classification
0      CN1CCN(C(=O)Nc2cccc(-c3ccccc3)c2)CC1        inactive
1  Cc1oc(S(=O)(=O)N2CCCCC2)cc1NC(=O)Nc1ccc(F)cc1        inactive
2                          Cc1ccn(C)c(=N)c1        inactive
3  O=[N+]([O-])c1ccc2c(c1)S(=O)c1ccccc1-2 (centres undefined)        inactive

I'd appreciate the recorded outcome for CN(CC(O)CN1CCOCC1)S(=O)(=O)O (centres undefined) from this test.
inactive

I'd appreciate the recorded outcome for "CCCCc1cc(=O)oc2c(C)c(OCc3nn[nH]n3)ccc12" from this test.
inactive

I'd appreciate the recorded outcome for "COCc1cc(O)c(O)c(O)c1-c1c(COC)cc(O)c(O)c1O" from this test.
active

I'd appreciate the recorded outcome for "Cc1ccccc1Nc1ncc(C#N)c(N)n1" from this test.
inactive

I'd appreciate the recorded outcome for O=C(CC1NCCNC1=O)NC1Cc2ccccc2C1 (centres undefined) from this test.
inactive

I'd appreciate the recorded outcome for "O=c1[nH]nc(N2CCOCC2)c(=O)[nH]1" from this test.
inactive
